Values from the supplement of paper PMC10567573

List of protein stability index values.
B1: ESRRG (parent)
chain: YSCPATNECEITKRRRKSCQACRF

Variants of: B1
Assay: protein stability index of a GFP-peptide fusion (GPS, HEK-293T) (PSI 1-6); higher = more stable;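 also: lentivirally expressed fusions sorted by FACS into six bins by GFP to DsRed ratio, PSI derived from sequencing read proportions per bin multiplied by bin number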
Settings: c terminus: a fixed tail appended
Number, no unit, nothing else.

Take a look at these entries with their results.
A21K :: 3.63
K13S :: 3.5
E8K :: 3.14
N7G :: 3.29
Y1M :: 4.2

Task item: Note down protein stability index recorded for C22Y
Reply: 3.01

Task item: Give protein stability index for K13D
Reply: 3.68

Task item: Answer with the recorded protein stability index for the variant listed here: F24N
Reply: 4.28

Task item: Quote protein stability index reported for R14G please.
Reply: 3.7

Task item: Return the recorded protein stability index value; entry: C3F
Reply: 3.12

Task item: Determine from records and report protein stability index for E10K
Reply: 3.41

Task item: Report protein stability index, nothing else, for this variant: T6N
Reply: 4.04

Task item: Using the record for I11A , state its measured protein stability index.
Reply: 3.39

Task item: Give reported protein stability index value for C3S
Reply: 3.56

Task item: In one line, give reported protein stability index of the entry S2Q .
Reply: 2.55

Task item: Give the measured protein stability index for K13E
Reply: 3.45

Task item: Provide only the value of recorded protein stability index for E8S
Reply: 2.97

Task item: Using the record for S2R , state its measured protein stability index.
Reply: 4.17

Task item: Give a short answer stating reported protein stability index for P4A .
Reply: 3.03

Task item: // Input: T6R . Output its protein stability index only.
Reply: 3.46

Task item: Give the value of protein stability index reported for the following: T12A
Reply: 3.32

Task item: Query protein stability index for C22F
Reply: 2.81
